method notes: Solubility in pH controlled solutions and intravenous formulations
Assay type: physicochemical
run parameters: pH controlled solution, pH 1, simulated gastric fluid; read-out: Solubility pH 1
measured property: solubility (µg/mL)
One number for each entry, in µg/mL.

Supply solubility value. Item: CC(=O)O[C@@]12C[C@@H](C)[C@@]3(O)[C@@H](C=C(CO)C[C@]4(O)C(=O)C(C)=C[C@@H]34)[C@@H]1C2(C)C [SA-101A, 12-deoxyphorbol 13-acetate] 370

----------
method notes: Solubility in pH controlled solutions and intravenous formulations
Assay type: physicochemical
run parameters: pH controlled solution, pH 5, aqueous buffer; read-out: Solubility pH 5
measured property: solubility (µg/mL)
One number for each entry, in µg/mL.

Give reported solubility value for CC(=O)O[C@@]12C[C@@H](C)[C@@]3(O)[C@@H](C=C(CO)C[C@]4(O)C(=O)C(C)=C[C@@H]34)[C@@H]1C2(C)C [SA-101A, 12-deoxyphorbol 13-acetate] 450
